Test: Ratio of drug concentration in C57BL/6N mouse brain to plasma at 10 mg/kg, ip measured after 0.5 hrs by LC-MS/MS analysis
Type: ADME, organism-based
Settings: brain and plasma
property measured: Kp at 0.5 h
Please state the value as a number alone, without comment.

Using the record for `Cc1cccc(C)c1NC(=O)c1sc(Nc2ccc(F)c(Cl)c2)nc1C` , state its measured Kp at 0.5 h.
1.6

====

Assay: Drug concentration in C57BL/6N mouse plasma at 10 mg/kg, ip measured after 2 hrs by LC-MS/MS analysis
Type: ADME, organism-based
property measured: concentration at 2 h (ng/mL)
Write the number in ng/mL without appending the unit.

Tell me concentration at 2 h reported for `Cc1cccc(C)c1NC(=O)c1sc(Nc2ccc(F)c(Cl)c2)nc1C`
1310
